Molecular target: T1, human parathyroid hormone receptor 1, wild-type (hPTHR-1) (human, UniProt Q03431 27-593)
T1 sequence (looked up): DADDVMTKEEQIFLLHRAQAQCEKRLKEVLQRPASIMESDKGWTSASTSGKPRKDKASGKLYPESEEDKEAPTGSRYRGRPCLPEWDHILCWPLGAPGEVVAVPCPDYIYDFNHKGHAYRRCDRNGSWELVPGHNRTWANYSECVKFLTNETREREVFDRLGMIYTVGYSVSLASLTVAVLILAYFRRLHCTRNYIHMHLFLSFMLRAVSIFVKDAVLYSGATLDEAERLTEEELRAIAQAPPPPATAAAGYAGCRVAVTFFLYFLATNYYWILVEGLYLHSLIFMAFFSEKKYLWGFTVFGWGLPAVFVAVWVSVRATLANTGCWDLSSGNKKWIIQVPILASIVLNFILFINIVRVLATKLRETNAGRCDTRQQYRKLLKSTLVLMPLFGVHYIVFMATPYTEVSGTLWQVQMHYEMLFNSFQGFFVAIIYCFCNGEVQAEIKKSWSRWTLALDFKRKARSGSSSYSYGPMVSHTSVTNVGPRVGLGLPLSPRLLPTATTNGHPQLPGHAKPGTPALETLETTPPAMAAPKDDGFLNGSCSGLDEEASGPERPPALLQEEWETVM
Experiment: cell-based or functional assay
Non-standard residues stand in square brackets, D forms with d. No end group written: not given here. APC = aminopyrrolidine carboxylic acid (2-aminopyrrolidine-4-carboxylic acid); ACPC = 2-aminocyclopentane carboxylic acid; Aib = CC(C)(N)C(=O)O
Entries and their cAMP EC50
Give the value in nM but do not write nM after it.

Here are 3 binders together with their reported answers.
binder	experimental_value
[ACPC]VSE[ACPC]Q[ACPC]LHDKGK[ACPC]IQD[ACPC]RRR[APC]LLE[APC]LL[Aib][ACPC]LHT[ACPC]-NH2 [CycD6 BA058 ACPC(1,5,7)]	0.65
[ACPC]VSE[ACPC]Q[ACPC]LHDKGKSIQDLRRRELLEKLL[Aib]KLHTA-NH2 [BA058 ACPC(1,5,7)]	0.26
AVSEHQLLHDKGK[ACPC]IQD[ACPC]RRR[APC]LLE[APC]LL[Aib][ACPC]LHT[ACPC]-NH2 [CycD6 BA058]	0.18

For [ACPC]VSEHQ[ACPC]LHDKGKSIQDLRRRELLEKLL[Aib]KLHTA-NH2 [BA058 ACPC(1,7)] the binder record lists cAMP EC50 as 4.69

Entry under test: [ACPC]VSEHQ[ACPC]LHDKGK[ACPC]IQD[ACPC]RRR[APC]LLE[APC]LL[Aib][ACPC]LHT[ACPC]-NH2 [CycD6 BA058 ACPC(1,7)] . Its cAMP EC50 was 18.9

Please fill in: cAMP EC50 reported for [ACPC]VSEHQ[ACPC]LHDKGKSIQDLRRRELLEKLL[Aib]KLHT[ACPC]-NH2 (not fully specified; also: D6 β3 residues, positions not shown (marking lost)) [D6 BA058 ACPC(1,7)] = 141
